Taken from ChEMBL document CHEMBL1149250.

# system-under-test: Cyclin-dependent kinase 2/cyclin A (Homo sapiens)
# test-summary: Inhibition of CDK2/Cyclin A
readout-type: IC50
Value and unit, in that order.

-- ask Given CN(C)c1nc2c(Br)c(Br)c(Br)c(Br)c2[nH]1 , state its recorded IC50.
-- reply 2.38 µM

* * *

# system-under-test: Dual specificity mitogen-activated protein kinase kinase 1 (Homo sapiens, UniProt Q02750)
# Sequence (Q02750 whole entry): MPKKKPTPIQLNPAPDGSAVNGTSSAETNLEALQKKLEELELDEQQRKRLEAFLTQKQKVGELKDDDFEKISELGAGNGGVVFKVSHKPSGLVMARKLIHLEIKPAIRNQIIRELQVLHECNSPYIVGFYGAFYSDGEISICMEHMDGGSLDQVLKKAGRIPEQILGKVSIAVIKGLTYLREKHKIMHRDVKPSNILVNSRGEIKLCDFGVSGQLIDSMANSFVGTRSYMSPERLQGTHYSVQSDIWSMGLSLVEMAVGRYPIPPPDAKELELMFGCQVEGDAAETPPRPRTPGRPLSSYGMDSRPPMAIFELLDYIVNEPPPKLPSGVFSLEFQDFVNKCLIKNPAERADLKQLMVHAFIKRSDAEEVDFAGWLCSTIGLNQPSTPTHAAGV
# test-summary: Inhibition of MKK1
readout-type: IC50
I'd appreciate it if you included the unit after the number.

-- ask Entry under review: CN(C)c1nc2c(Br)c(Br)c(Br)c(Br)c2[nH]1 . Reported IC50?
-- reply 10.5 µM

* * *

# system-under-test: Casein kinase II (Homo sapiens, UniProt P19784+P67870+P68400)
# Sequence (P67870 whole entry): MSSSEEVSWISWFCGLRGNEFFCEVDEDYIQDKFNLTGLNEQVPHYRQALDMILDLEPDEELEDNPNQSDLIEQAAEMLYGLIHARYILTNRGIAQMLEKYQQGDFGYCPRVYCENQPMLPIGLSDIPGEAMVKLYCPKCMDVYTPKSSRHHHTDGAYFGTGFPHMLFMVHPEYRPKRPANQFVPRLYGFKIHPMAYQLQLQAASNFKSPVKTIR
# Sequence (P68400 whole entry): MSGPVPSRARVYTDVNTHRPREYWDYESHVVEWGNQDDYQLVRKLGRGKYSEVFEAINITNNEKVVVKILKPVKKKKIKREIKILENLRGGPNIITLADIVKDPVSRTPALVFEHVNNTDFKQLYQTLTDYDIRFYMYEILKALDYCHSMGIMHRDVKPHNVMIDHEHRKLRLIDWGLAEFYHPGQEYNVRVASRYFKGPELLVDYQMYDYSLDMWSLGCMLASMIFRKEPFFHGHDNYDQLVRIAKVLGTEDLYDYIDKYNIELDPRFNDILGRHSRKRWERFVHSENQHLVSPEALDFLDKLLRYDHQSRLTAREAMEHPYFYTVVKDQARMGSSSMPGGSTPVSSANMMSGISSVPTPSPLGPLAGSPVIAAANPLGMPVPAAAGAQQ
# Sequence (P19784 whole entry): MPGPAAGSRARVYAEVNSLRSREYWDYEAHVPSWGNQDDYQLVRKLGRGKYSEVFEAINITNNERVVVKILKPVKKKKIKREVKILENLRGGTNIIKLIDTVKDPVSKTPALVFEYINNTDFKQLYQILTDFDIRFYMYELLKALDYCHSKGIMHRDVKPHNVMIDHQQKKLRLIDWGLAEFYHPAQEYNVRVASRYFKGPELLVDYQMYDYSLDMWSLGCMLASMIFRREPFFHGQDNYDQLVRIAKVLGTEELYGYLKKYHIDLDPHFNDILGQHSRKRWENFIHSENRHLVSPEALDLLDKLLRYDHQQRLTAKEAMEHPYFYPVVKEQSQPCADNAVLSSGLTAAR
# test-summary: Inhibition of CK2
readout-type: pIC50
In simple prose, pIC50 is minus the logarithm base ten of a concentration in moles per litre.

Solved cases (8 shown):
[[record]]
compound = "NC(=O)Cn1c(Br)nc2c(Br)c(Br)c(Br)c(Br)c21"
readout_type = "pIC50"
reported_measurement = 5.80

[[record]]
compound = "CC(C)Nc1nc2c(Br)c(Br)c(Br)c(Br)c2n1C"
readout_type = "pIC50"
reported_measurement = 6.74

[[record]]
compound = "Nc1nc2c(Br)c(Br)c(Br)c(Br)c2[nH]1"
readout_type = "pIC50"
reported_measurement = 6.52

[[record]]
compound = "O=[N+]([O-])c1ccc(CSc2nc3c(Br)c(Br)c(Br)c(Br)c3[nH]2)cc1"
readout_type = "pIC50"
reported_measurement = 5.46

[[record]]
compound = "Cn1c(Br)nc2c(Br)c(Br)c(Br)c(Br)c21"
readout_type = "pIC50"
reported_measurement = 6.37

[[record]]
compound = "CN(C)CCNc1nc2c(Br)c(Br)c(Br)c(Br)c2[nH]1"
readout_type = "pIC50"
reported_measurement = 6.60

[[record]]
compound = "CC(O)CNc1nc2c(Br)c(Br)c(Br)c(Br)c2[nH]1 (stereo not given)"
readout_type = "pIC50"
reported_measurement = 6.55

[[record]]
compound = "CNc1nc2c(Br)c(Br)c(Br)c(Br)c2[nH]1"
readout_type = "pIC50"
reported_measurement = 6.68


-- ask # value lookup — system Casein kinase II (Homo sapiens, UniProt P19784+P67870+P68400), readout pIC50, item CC(C)Nc1nc2c(Br)c(Br)c(Br)c(Br)c2[nH]1
-- reply 6.80
